Values were extracted from ChEMBL document CHEMBL3046894.

Assay: Pre-emergence phytotoxicity against Zea mays (maize) assessed as mortality at 1.6 g a.i/10 a
Assay type: organism-based
Settings: in vivo, 1.6 g a.i/10 a, read-out: Activity
Outcome Measure: mortality

> print(dat)
                        chemical.structure  result
1      COc1cc(OC)nc(Sc2cccc(OC)c2C(=O)O)n1   > 90%
2  COc1cc(OC)nc(Sc2cccc(OC(C)C)c2C(=O)O)n1   < 50%
3     CCSc1cccc(Sc2nc(OC)cc(OC)n2)c1C(=O)O   < 50%

Here's the next entry for you.
If you can, please state the reported mortality value of `CCCOc1cccc(Sc2nc(OC)cc(OC)n2)c1C(=O)O` .
< 50%

====

Test system: Persicaria nodosa
Experiment: Pre-emergence herbicidal activity against Persicaria nodosa assessed as growth inhibition at 25 g a.i/10 a
Format: functional, organism-based
Activity calls are given as the source filed them. The rule behind the calls is not given here.
API: response.call in T = active, F = inactive

Test call, this compound: `COc1cc(OC)nc(Oc2cccc(N)c2C(=O)O)n1`
F

Test call, this compound: `COc1cc(OC)nc(Oc2ccc(C(F)(F)F)cc2C(=O)O)n1`
F

====

Tested on: Glycine max
Assay: Pre-emergence phytotoxicity against Glycine max (soybean) assessed as mortality at 6.3 g a.i/10 a
Assay type: organism-based
Conditions: in vivo, other
Outcome Measure: Activity

> print(dat)
                         chemical.structure  measured.target     result
1      CCOc1cccc(Oc2nc(OC)cc(OC)n2)c1C(=O)O      Glycine max      Toxic
2  COc1cc(OC)nc(Sc2cccc([N+](=O)[O-])c2C(=O)O)n1      Glycine max      Toxic
3  COC(=O)c1cccc(Oc2nc(OC)cc(OC)n2)c1C(=O)O      Glycine max  Non-toxic
4        COc1cc(OC)nc(Sc2cccc(C)c2C(=O)O)n1      Glycine max  Non-toxic

====

System: Digitaria sanguinalis
Assay: Post-emergence herbicidal activity against Digitaria sanguinalis (hairy crabgrass) assessed as growth inhibition at 25 g a.i/10 a applied 11 days after germination as foliar spray
Assay type: functional, organism-based
Active and inactive are the calls of the source. The rule behind the calls is not given here.
API: response.call in active, inactive

For orientation, consider the following solved cases.
> print(dat)
                          chemical.structure  assigned.category
 1   COc1cc(OC)nc(Oc2cccc(C(C)=O)c2C(=O)O)n1             active
 2       COc1cc(OC)nc(Cc2cccc(Cl)c2C(=O)O)n1             active
 3       COc1cc(OC)nc(Oc2c(Cl)cccc2C(=O)O)n1           inactive
 4        COc1cc(OC)nc(Oc2cccc(N)c2C(=O)O)n1             active
 5    CCCCOc1cccc(Oc2nc(OC)cc(OC)n2)c1C(=O)O             active
 6      CCCc1cccc(Oc2nc(OC)cc(OC)n2)c1C(=O)O             active
 7   COc1cc(OC)nc(Oc2ccc(OC(C)C)cc2C(=O)O)n1           inactive
 8        COc1cc(OC)nc(Oc2c(C)cccc2C(=O)O)n1           inactive
 9  COc1cc(OC)nc(Oc2cccc(-n3cccc3)c2C(=O)O)n1             active
10      CCOc1cccc(Oc2nc(OC)cc(OC)n2)c1C(=O)O             active

Test call, this molecule: `CNc1ccc(Oc2nc(OC)cc(OC)n2)c(C(=O)O)c1`
active

Test call, this molecule: `CCCOc1cccc(Oc2nc(OC)cc(OC)n2)c1C(=O)O`
active
